Where these numbers come from: paper PMC8582576

molecular target: P-gp (Homo sapiens, UniProt P08183); assay: Rho 123 accumulation assay (P-gp activity) in DLD1-TxR cells; settings: IC50 for P-gp inhibition, DLD1-TxR, Rho123 accumulation, 30 min; TQ values in nM (footnote a)
Sequence (P08183 whole entry): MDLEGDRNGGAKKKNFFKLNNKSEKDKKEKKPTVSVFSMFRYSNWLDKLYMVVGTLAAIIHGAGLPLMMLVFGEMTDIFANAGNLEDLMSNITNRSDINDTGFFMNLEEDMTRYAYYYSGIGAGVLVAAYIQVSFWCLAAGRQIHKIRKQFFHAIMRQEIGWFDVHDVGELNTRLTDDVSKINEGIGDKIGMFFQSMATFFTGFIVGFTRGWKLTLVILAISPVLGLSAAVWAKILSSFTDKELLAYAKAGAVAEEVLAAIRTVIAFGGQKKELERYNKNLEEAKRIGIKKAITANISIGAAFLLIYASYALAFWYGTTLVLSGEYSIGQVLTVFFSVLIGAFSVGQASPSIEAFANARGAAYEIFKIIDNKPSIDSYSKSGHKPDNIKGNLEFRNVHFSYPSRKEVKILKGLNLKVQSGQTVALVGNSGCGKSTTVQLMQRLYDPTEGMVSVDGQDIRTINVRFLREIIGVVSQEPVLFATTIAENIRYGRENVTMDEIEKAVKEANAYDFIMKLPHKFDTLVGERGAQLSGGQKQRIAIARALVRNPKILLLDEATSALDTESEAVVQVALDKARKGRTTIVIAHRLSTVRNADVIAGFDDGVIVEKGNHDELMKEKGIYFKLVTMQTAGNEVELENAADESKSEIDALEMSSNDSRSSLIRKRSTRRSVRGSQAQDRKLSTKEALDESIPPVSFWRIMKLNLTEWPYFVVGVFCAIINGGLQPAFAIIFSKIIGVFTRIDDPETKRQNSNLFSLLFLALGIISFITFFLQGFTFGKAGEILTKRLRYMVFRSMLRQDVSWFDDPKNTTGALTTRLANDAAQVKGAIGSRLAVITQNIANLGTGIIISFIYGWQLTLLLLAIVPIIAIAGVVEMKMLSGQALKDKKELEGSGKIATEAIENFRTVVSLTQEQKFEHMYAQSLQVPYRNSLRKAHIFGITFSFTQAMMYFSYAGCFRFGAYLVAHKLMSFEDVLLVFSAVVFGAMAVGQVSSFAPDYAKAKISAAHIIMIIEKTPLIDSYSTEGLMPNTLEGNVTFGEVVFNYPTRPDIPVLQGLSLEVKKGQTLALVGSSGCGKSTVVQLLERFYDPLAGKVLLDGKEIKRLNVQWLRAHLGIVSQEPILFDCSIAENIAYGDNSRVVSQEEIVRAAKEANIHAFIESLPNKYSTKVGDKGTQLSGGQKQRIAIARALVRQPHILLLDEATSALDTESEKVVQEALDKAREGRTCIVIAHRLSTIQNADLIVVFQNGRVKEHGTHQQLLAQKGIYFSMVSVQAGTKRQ
assayEndpoint: IC50 (nM)
Give bare numbers, in nM.

q: // returns reported IC50 for input COc1cc2c(cc1OC)CN(CCc1ccc(NC(=O)c3cc(OC)c(OC)cc3NC(=O)c3cnc4ccccc4c3)cc1)CC2 [TQ, tariquidar, reference compound]
a: 0.925

---

target: P-gp (Homo sapiens, UniProt P08183); experiment: Rho 123 accumulation assay (P-gp activity) in NCI-H460/R cells; conditions: human, NCI-H460/R cells, probe Rho 123 (5 µM)
assayEndpoint: inhibition at 30 min, 1 µM (%)
Answers are plain numbers, in %.

q: // returns reported inhibition at 30 min, 1 µM for input CN1CCN(CCOC(=O)N(Cc2ccccc2Cl)c2ncnc3c2cnn3CC(Cl)c2ccc(Br)cc2)CC1 (stereo not shown)
a: 100

---

Can you tell me pIC50 for the items I'm about to list?
test system: NCI-H460/R; test: MTT cell viability assay, NCI-H460/R; format: cell-based, human; conditions: Homo sapiens; NCI-H460/R (MDR), MTT, 72 h; read-out: Decrease in cell viability, IC50
One number for each entry, as −log10 of the molar value.

Examples with their reported pIC50 follow.
In [3]: df
Out[3]:
                                   molecule  systemtested  assayendpoint  obsvalue
0  ClC(Cn1ncc2c(Nc3cccc(Br)c3)nc(SCCN3CCOCC3)nc21)c1ccccc1 (centres unmarked)    NCI-H460/R          pIC50      5.72
1  Clc1ccccc1CNc1ncnc2c1cnn2CC(Cl)c1ccc(Br)cc1 (centres unmarked)    NCI-H460/R          pIC50      4.74
2  Cc1nc(Nc2ncc(C(=O)Nc3c(C)cccc3Cl)s2)cc(N2CCN(CCO)CC2)n1 [Dasatinib, reference compound]    NCI-H460/R          pIC50      5.16

Batch lookup, pIC50 per entry.
1. CN1CCN(CCOC(=O)N(Cc2ccccc2Cl)c2ncnc3c2cnn3CC(Cl)c2ccc(Br)cc2)CC1 (centres unmarked)
2. CN1CCN(CCOC(=O)N(c2cccc(Br)c2)c2nc(SCCN3CCOCC3)nc3c2cnn3CC(Cl)c2ccccc2)CC1 (centres unmarked)

a:
5.29
6.05

---

molecular target: P-gp (Homo sapiens); experiment: Rho 123 accumulation assay (P-gp activity) in DLD1-TxR cells; details: human, DLD1-TxR cells, probe Rho 123 (5 µM)
assayEndpoint: inhibition at 30 min, 1 µM
Please format your answer as a value with the unit trailing.

q: // returns reported inhibition at 30 min, 1 µM for input CN1CCN(CCOC(=O)N(Cc2ccccc2Cl)c2ncnc3c2cnn3CC(Cl)c2ccc(Br)cc2)CC1 (stereo not shown)
a: 100%

---

molecular target: P-gp (Homo sapiens); experiment: Rho 123 accumulation assay (P-gp activity) in DLD1-TxR cells; conditions: IC50 for P-gp inhibition, DLD1-TxR, Rho123 accumulation, 30 min
assayEndpoint: pIC50
Give bare numbers, as −log10 of the molar value.

q: // returns reported pIC50 for input CN1CCN(CCOC(=O)N(Cc2ccccc2Cl)c2ncnc3c2cnn3CC(Cl)c2ccc(Br)cc2)CC1 (stereo not shown)
a: 6.17

---

biological target: P-gp (Homo sapiens); assay: Rho 123 accumulation assay (P-gp activity) in NCI-H460/R cells; settings: IC50 for P-gp inhibition, NCI-H460/R, Rho123 accumulation, 30 min
assayEndpoint: IC50 (µM)
Give bare numbers, in µM.

>>> print(df.to_string())
                                   compound         systemtested  obsvalue
0  CN1CCN(CCOC(=O)N(Cc2ccccc2Cl)c2ncnc3c2cnn3CC(Cl)c2ccc(Br)cc2)CC1 (centres unmarked)  P-gp (Homo sapiens)     0.612

q: // returns reported IC50 for input ClC(Cn1ncc2c(Nc3cccc(Br)c3)nc(SCCN3CCOCC3)nc21)c1ccccc1 (centres unmarked)
a: 13.3
